Reference for the values: ChEMBL document CHEMBL4689842

System: Fibroblast
method: Multiplex assay against human fibroblast
Format: toxicity, cell-based
test conditions: 24 h, 1 µM, compound concentration 1 uM, replicate 1
measure name: Population Pyknosed Nuclei (%)

> print(dat)
                                    compound                    measure.name                 reading
 1  CN1CCC[C@@H]1CCO[C@](C)(c1ccccc1)c1ccc(Cl)cc1.O=C(O)/C=C/C(=O)O [CLEMASTINE FUMARATE]  Population Pyknosed Nuclei (%)                     13%
 2  O=C(NCCCC1CCCCC1)c1ccc(CNC(=O)c2cnn(-c3ccccc3)c2C(F)(F)F)cc1  Population Pyknosed Nuclei (%)  33% [middle of 4 runs]
 3  Cc1nc(-c2cn3c(n2)-c2ccc(-c4cnn(C(C)(C)C(N)=O)c4)cc2OCC3)n(C(C)C)n1  Population Pyknosed Nuclei (%)                     16%
 4  CCN(CC)CCCCNc1ncc2cc(-c3cc(OC)cc(OC)c3)c(NC(=O)NC(C)(C)C)nc2n1  Population Pyknosed Nuclei (%)                     53%
 5  NC(=O)Nc1cc(-c2cccc(F)c2)sc1C(=O)N[C@H]1CCCNC1  Population Pyknosed Nuclei (%)                     12%
 6  Cc1nc(Nc2n[nH]c3c2CN(C(=O)N[C@H](CN(C)C)c2ccccc2)C3(C)C)c2sccc2n1  Population Pyknosed Nuclei (%)                     20%
 7  COc1cc(-n2cnc3cc(-c4ccc(Cl)cc4)sc3c2=O)ccc1OCCN1CCCC1  Population Pyknosed Nuclei (%)                     15%
 8  C[C@@]1(C(=O)Nc2ccc(F)nc2)CCCN1c1nc(Nc2cc(C3CC3)n[nH]2)c2cccn2n1  Population Pyknosed Nuclei (%)                     16%
 9  Cc1nc(-c2ccc(-c3ccc(C(=O)N4CCc5cc6c(cc54)C4(CCN(C)CC4)CO6)cc3)c(C)c2)no1  Population Pyknosed Nuclei (%)                     25%
10  OC1(c2ccc(Cl)cc2)CCN(Cc2c[nH]c3ccccc23)CC1  Population Pyknosed Nuclei (%)                     22%
11  CC(C)C(=O)Nc1n[nH]c2cc(-c3cccc(NS(=O)(=O)C4CC4)c3)ccc12  Population Pyknosed Nuclei (%)                     17%
12  Cl.N#Cc1ccc2[nH]cc(CCCCN3CCN(c4ccc5oc(C(N)=O)cc5c4)CC3)c2c1 [VILAZODONE HYDROCHLORIDE]  Population Pyknosed Nuclei (%)                     25%
13  CN1CCN(c2ccc(OC(F)(F)F)c(Nc3ncc4c(n3)-c3c(c(C(N)=O)nn3CCO)CC4)c2)CC1  Population Pyknosed Nuclei (%)                     33%
